System: OVCAR-5
Assay: NCI tumour cell line growth inhibition, 48 h
The source made the active and inactive calls. Cut-off read from the data, not from the text of the source: active = GI50 up to about 1.1 µM and inactive = higher.

{"compound": "CCOC(=O)c1[nH]c(Br)c(-c2ccc(OC)c(OC)c2)c1Br", "GI50": "5.27 µM (inactive)"}
{"compound": "CN1CC2=C(OC(N)=C(C#N)C2c2cccs2)/C(=C/c2cccs2)C1 (stereo unspecified)", "GI50": "> 84.9 µM (inactive)"}
{"compound": "COc1ccc(NC(=O)CC(=O)N2N=C(N(CCC#N)c3ccccc3Cl)CC2c2ccccc2)cc1 (stereo unspecified)", "GI50": "> 100 µM (inactive)"}
{"compound": "O=C(NC1C=CCC2C(=O)N(c3ccccc3)C(=O)C12)OCc1ccccc1 (stereo unspecified)", "GI50": "97.3 µM (inactive)"}
{"compound": "CCOC(=O)C(O)(C(=O)OCC)c1cc(C(C)(C)C)c(O)c(C(C)(C)C)c1", "GI50": "41.2 µM (inactive)"}
{"compound": "CSc1nc(Cl)c2c(n1)Sc1nc3ccccc3n1N=C2", "GI50": "28.9 µM (inactive)"}
{"compound": "CN1NC2(CCCCC2)ON=C1c1ccccc1", "GI50": "> 100 µM (inactive)"}
{"compound": "O=C(NCCCl)Nc1ccccc1", "GI50": "> 100 µM (inactive)"}
{"compound": "CC1=C(C(=O)Nc2ccccc2C)C(c2ccco2)C(C(=O)Nc2ccccc2C)=C(C)N1C", "GI50": "> 100 µM (inactive)"}
{"compound": "O=C(c1ccco1)n1c2ccc(Br)cc2c2nc3ccccc3nc21", "GI50": "> 100 µM (inactive)"}
{"compound": "COc1ccc(C(=O)/C=C/c2ccc(OCC(=O)N3CCN(c4ccccc4)CC3)cc2)cc1", "GI50": "> 100 µM (inactive)"}

----------
Below: a set of entries, each annotated with reported GI50.
Test system: HL-60
Test: NCI tumour cell line growth inhibition, 48 h
Active and inactive are the calls of the source. Rule as the data show it: active = GI50 up to about 1.1 µM and inactive = higher.

{"compound": "Cc1cc(=O)n(-c2ccccc2C)c(C)n1", "GI50": "> 100 µM (inactive)"}
{"compound": "CC1CCc2sc3nc(S)n(C)c(=O)c3c2C1 (stereo unspecified)", "GI50": "2.85 µM (inactive)"}
{"compound": "CCCCCOP(=O)(OCCCCC)C(NC(C)=O)(C(=O)OCC)C(F)(F)F (stereo unspecified)", "GI50": "> 100 µM (inactive)"}
{"compound": "O=C(Nc1c(C(=O)NC2CCCCC2)[nH]c(=O)[nH]c1=O)c1ccc(Cl)cc1", "GI50": "> 100 µM (inactive)"}
{"compound": "CN(C)c1ccc(-c2ccc(N(C)C)c3n[se]nc23)c2n[se]nc12", "GI50": "> 100 µM (inactive)"}
{"compound": "O=C1c2cc3c(cc2CC12Cc1ccc4c(c1C2=O)CCCC4)CCCC3 (stereo unspecified)", "GI50": "> 100 µM (inactive)"}

----------
Tested on: OVCAR-8
Experiment: NCI tumour cell line growth inhibition, 48 h
Calls of active or inactive are those of the source. Rule as the data show it: active = GI50 up to about 1.1 µM and inactive = higher.

{"compound": "CCOC(=O)C(C(=O)OCC)S(C)(=O)=O", "GI50": "> 100 µM (inactive)"}
{"compound": "Fc1ccc2c(c1)SC1=Nc3sc4cc(F)ccc4[n+]3CN12", "GI50": "14.6 µM (inactive)"}
{"compound": "CC(C)=CC1(C)/C(=N\\O)C(C)(CC(C)C)C(=O)N1O (stereo not given)", "GI50": "> 100 µM (inactive)"}
{"compound": "O=C1C[C@H](Sc2ccccc2)C2(OCCO2)[C@@H](Sc2ccccc2)C1", "GI50": "1.73 µM (inactive)"}
{"compound": "CC[C@]12C=CCN3CC[C@@]4(c5cc(Br)c(OC)c([N+](=O)[O-])c5N(C)[C@H]4[C@@](O)(C(=O)OC)[C@@H]1OC(C)=O)[C@@H]32", "GI50": "30.5 µM (inactive)"}

----------
Test system: SK-OV-3
Experiment: NCI tumour cell line growth inhibition, 48 h
The source made the active and inactive calls. No stated cut-off is given here; in the data, active = GI50 up to about 1.1 µM and inactive = higher.
test_readout: GI50

{"molecule": "O=C(O)C(O)c1ccc(F)cc1 (stereo not given)", "result": "> 100 µM (inactive)"}
{"molecule": "Cc1ccc(S(=O)(=O)N2c3ccccc3[C@H]3CCc4c([nH]c5ccccc45)[C@H]32)cc1", "result": "> 100 µM (inactive)"}
{"molecule": "CCOC(=O)C1=C(C(=O)OCC)SC2(S1)C(C(=O)OCC)=C(C(=O)OCC)Sc1c2ssc1=O", "result": "6.12 µM (inactive)"}
{"molecule": "OCCCC(O)(c1ccccc1)c1ccccc1", "result": "> 100 µM (inactive)"}
{"molecule": "C=CCC(O)c1cc(OC)ccc1OC (stereo not given)", "result": "> 100 µM (inactive)"}
{"molecule": "COC(=O)c1nc(-c2ccc(Cl)c(Cl)c2)nc2ccccc12", "result": "9.91 µM (inactive)"}
{"molecule": "CCCNC(=O)N(C)C(=O)N1N=C(c2ccccc2)C1c1ccccc1 (stereo not given)", "result": "> 100 µM (inactive)"}
{"molecule": "COc1ccc(COCC[C@H](C)OC2OC(CO[Si](C)(C)C(C)(C)C)C(OC(=O)CCCN=[N+]=[N-])C(OC(=O)CCCN=[N+]=[N-])C2OC(=O)CCCN=[N+]=[N-])cc1 (stereo not given in full)", "result": "> 100 µM (inactive)"}
{"molecule": "CCCCCCCCCCCCCCCCOCC(CP(=O)([O-])OCC[n+]1ccccc1)OC (stereo not given)", "result": "17.7 µM (inactive)"}
{"molecule": "CCCC#CCOC(=O)c1cc([N+](=O)[O-])cc([N+](=O)[O-])c1", "result": "> 100 µM (inactive)"}

----------
Catalogue of GI50 readings, one per entry.
Test system: HOP-18
Experiment: NCI tumour cell line growth inhibition, 48 h
Active and inactive are the calls of the source. Rule as the data show it: active = GI50 up to about 1.1 µM and inactive = higher.

{"compound": "CC12CC(Br)(Br)C(=O)C3C1CCCC32", "GI50": "9.89 µM (inactive)"}
{"compound": "C/C=C/C#CC#C/C=C/C=C/C(O)CCO (stereo not given)", "GI50": "> 23.1 µM (inactive)"}
{"compound": "Cc1cc(=O)n(-c2ccccc2C)c(C)n1", "GI50": "> 100 µM (inactive)"}
{"compound": "O=C(Nc1c(C(=O)NC2CCCCC2)[nH]c(=O)[nH]c1=O)c1ccc(Cl)cc1", "GI50": "> 100 µM (inactive)"}
{"compound": "C=CCNC(=S)NNC(=O)c1c(C)nc2sccn12", "GI50": "> 100 µM (inactive)"}
{"compound": "C=CC(C)C1(CCCOCc2ccccc2)C(=S)N2CCC3(CC24CCCC14)OCCO3 (stereo not given)", "GI50": "> 100 µM (inactive)"}
{"compound": "CC(=O)NC1=C(N)C(=O)c2ccccc2C1=O", "GI50": "> 100 µM (inactive)"}
{"compound": "CCOC(=O)C(C(=O)OCC)S(C)(=O)=O", "GI50": "> 100 µM (inactive)"}
{"compound": "CCN1C[C@]2(C)CC[C@H](OC)C34C1C([C@H](OC(C)=O)[C@@H]32)[C@@]1(OC)C[C@H](OC)[C@H]2C[C@@H]4[C@@H]1[C@H]2O", "GI50": "> 100 µM (inactive)"}
{"compound": "COc1c(O)ccc(/C=N/NC(=S)NCOCCOC(C)=O)c1OC", "GI50": "> 100 µM (inactive)"}
{"compound": "Nn1c(S)nnc1N/N=C1/C(=O)Nc2ccccc21", "GI50": "70.5 µM (inactive)"}
{"compound": "CN(C)CCNC(=O)c1ccc(Cl)c2c(Nc3ccc(S(N)(=O)=O)cc3)c3ccccc3nc12", "GI50": "2.2 µM (inactive)"}
{"compound": "COC(=O)[C@@]12OC[C@]34C([C@@H](O)C1O)[C@@]1(C)CC(=O)C(OC(=O)CC(C)C(F)(F)F)=C(C)C1C[C@H]3OC(=O)[C@H](O)[C@H]42 (stereo not given in full)", "GI50": "1.99 µM (inactive)"}
{"compound": "c1ccc(CN2CCCCC(Sc3ccccc3)CC2)cc1 (stereo not given)", "GI50": "42.7 µM (inactive)"}
{"compound": "Cc1csc(/N=C(/NCCN2CCOCC2)Nc2nc(C)cs2)n1", "GI50": "> 100 µM (inactive)"}

----------
Test system: SF-295
Experiment: NCI tumour cell line growth inhibition, 48 h
Calls of active or inactive are those of the source. Rule as the data show it: active = GI50 up to about 1.1 µM and inactive = higher.
Outcome codes: active, inactive

{"molecule": "C=CCN(c1cc(OCc2ccccc2)c2c(c1)c(C)cn2S(=O)(=O)c1ccccc1)S(C)(=O)=O", "label": "inactive"}
{"molecule": "C#CCOC(=O)C(N)CC(N)=O (stereo not given)", "label": "inactive"}
{"molecule": "CCOC(=O)C(O)(C(=O)OCC)c1cc(C(C)(C)C)c(O)c(C(C)(C)C)c1", "label": "inactive"}
{"molecule": "CCOC(=O)c1[nH]c(Br)c(-c2ccc(OC)c(OC)c2)c1Br", "label": "active"}
{"molecule": "C[C@@]12[C@H]3CC[C@@H]1[C@H](O)C(=O)N2CC3", "label": "inactive"}
{"molecule": "N#CCCn1[nH]c(=O)c(Cl)c(Cl)c1=O", "label": "inactive"}
{"molecule": "C=CCNC(=S)NNC(=O)c1c(C)nc2sccn12", "label": "inactive"}
{"molecule": "COc1ccc2c(-c3ccc(OCCN(C)C)cc3)c(Oc3ccc(Cl)cc3)c(=O)oc2c1", "label": "inactive"}
{"molecule": "COc1cc2c(c(OC)c1OC)-c1ccc(SC)c(=O)cc1[C@@H](NCc1ccc([N+](=O)[O-])cc1)CC2", "label": "active"}
{"molecule": "O=C(c1ccc(Cl)cc1)N(C(=S)N1CCN(c2ccccn2)CC1)c1ccccc1", "label": "inactive"}
